Measured IC50 by item
# tested_on: hCA IX (Homo sapiens, UniProt Q16790)
# procedure_summary: CA inhibition assay (hydrolysis of 4-nitrophenylacetate)
# Format: biochemical
# condition: 4-NPA hydrolysis; three independent assays, relative errors 5–10%
The response must be a number in nM with no trailing unit.

The cases that follow already have their IC50 on record.
• COc1cc(-c2cn(-c3ccc(S(N)(=O)=O)cc3)nn2)ccc1N [Compound 14f] = 120
• Cc1cc(-c2cn(-c3ccc(S(N)(=O)=O)cc3)nn2)ccc1N [Compound 14e] = 111
• NS(=O)(=O)c1ccc(-n2cc(-c3ccc(NC(=O)CCCC(=O)N[C@@H]4O[C@H](CO)[C@@H](O)[C@H](O)[C@H]4O)c(F)c3)nn2)cc1 [Compound 16j] = 230

Identify the measured IC50 of Nc1ccc(-c2cn(-c3ccc(S(N)(=O)=O)cc3)nn2)cc1Cl [Compound 14d] for hCA IX (Homo sapiens, UniProt Q16790). 71

Request body: readout IC50, system hCA IX (Homo sapiens, UniProt Q16790), query NS(=O)(=O)c1ccc(-n2cc(-c3ccc(NC(=O)CCC(=O)N[C@@H]4O[C@H](CO)[C@@H](O)[C@H](O)[C@H]4O)c(F)c3)nn2)cc1 [Compound 16c] . Return the value. 150

---

# tested_on: hCA II (Homo sapiens, UniProt P00918)
# procedure_summary: CA inhibition assay (hydrolysis of 4-nitrophenylacetate)
# Format: biochemical
# condition: 4-NPA hydrolysis; three independent assays, relative errors 5–10%
readout_kind: IC50 (nM)
Return type: number; implicit unit nM.

- COc1cc(-c2cn(-c3ccc(S(N)(=O)=O)cc3)nn2)ccc1NC(=O)CCC(=O)N[C@@H]1O[C@H](CO)[C@@H](O)[C@H](O)[C@H]1O [Compound 16f]: 112
- Nc1c(F)cc(-c2cn(-c3ccc(S(N)(=O)=O)cc3)nn2)cc1F [Compound 14g]: 87

Name the recorded IC50 for NS(=O)(=O)c1ccc(-n2cc(-c3ccc(NC(=O)CCCC(=O)N[C@@H]4O[C@H](CO)[C@@H](O)[C@H](O)[C@H]4O)c(F)c3)nn2)cc1 [Compound 16j] . 88.4

---

# tested_on: UniProtKB Q16790
# procedure_summary: CA inhibition assay (hydrolysis of 4-nitrophenylacetate)
# Assay type: biochemical
# condition: 4-NPA hydrolysis; three independent assays, relative errors 5–10%
readout_kind: IC50 (nM)
Response body: numeric value in nM, unit text excluded.

- Nc1ccc(-c2cn(-c3ccc(S(N)(=O)=O)cc3)nn2)cc1 [Compound 14a]: 54.4
- NS(=O)(=O)c1ccc(-n2cc(-c3ccc(NC(=O)CCCC(=O)N[C@@H]4O[C@H](CO)[C@@H](O)[C@H](O)[C@H]4O)c([N+](=O)[O-])c3)nn2)cc1 [Compound 16o]: 216

Returns the measured IC50 for the input compound. Input: NS(=O)(=O)c1ccc(-n2cc(-c3ccc(NC(=O)CCCC(=O)N[C@@H]4O[C@H](CO)[C@@H](O)[C@H](O)[C@H]4O)cc3)nn2)cc1 [Compound 16h] 270

---

Entries and their measured IC50 follow.
# tested_on: hCA II (Homo sapiens, UniProt P00918)
# procedure_summary: CA inhibition assay (hydrolysis of 4-nitrophenylacetate)
# Assay type: biochemical
# condition: 4-NPA hydrolysis; three independent assays, relative errors 5–10%

Reference set, count: 2
* NS(=O)(=O)c1ccc(-n2cc(-c3cc(F)c(NC(=O)CCCC(=O)N[C@@H]4O[C@H](CO)[C@@H](O)[C@H](O)[C@H]4O)c(F)c3)nn2)cc1 [Compound 16n] | 177 nM
* COc1cc(-c2cn(-c3ccc(S(N)(=O)=O)cc3)nn2)ccc1NC(=O)CCCC(=O)N[C@@H]1O[C@H](CO)[C@@H](O)[C@H](O)[C@H]1O [Compound 16m] | 88.1 nM

// moving on: another record for IC50
Entry Nc1cccc(-c2cn(-c3ccc(S(N)(=O)=O)cc3)nn2)c1 [Compound 14b] has what IC50? 12.3 nM

---

Measured melting point of individual entries

See these solved cases before continuing.
* Nc1cccc(-c2cn(-c3ccc(S(N)(=O)=O)cc3)nn2)c1 [Compound 14b] | 270 to 273 °C
* Nc1ccc(-c2cn(-c3ccc(S(N)(=O)=O)cc3)nn2)cc1 [Compound 14a] | 256 to 258 °C
* Nc1ccc(-c2cn(-c3ccc(S(N)(=O)=O)cc3)nn2)cc1Cl [Compound 14d] | 201 to 203 °C
* Nc1ccc(-c2cn(-c3ccc(S(N)(=O)=O)cc3)nn2)cc1[N+](=O)[O-] [Compound 14h] | 222 to 225 °C

Continue with the compound presented below.
What melting point value was documented for this compound, COc1cc(-c2cn(-c3ccc(S(N)(=O)=O)cc3)nn2)ccc1N [Compound 14f] ? 230 to 233 °C

---

# tested_on: UniProt:O43570
# Sequence (O43570 25-354): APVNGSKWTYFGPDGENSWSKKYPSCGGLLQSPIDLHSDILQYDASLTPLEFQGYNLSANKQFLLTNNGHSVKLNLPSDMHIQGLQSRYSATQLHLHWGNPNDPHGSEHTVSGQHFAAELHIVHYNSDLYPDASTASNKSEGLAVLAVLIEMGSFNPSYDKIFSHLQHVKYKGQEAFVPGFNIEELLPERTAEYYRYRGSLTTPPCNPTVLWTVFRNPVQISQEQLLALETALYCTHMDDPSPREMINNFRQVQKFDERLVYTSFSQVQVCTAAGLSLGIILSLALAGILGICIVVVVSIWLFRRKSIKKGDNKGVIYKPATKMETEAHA
# procedure_summary: CA inhibition assay (hydrolysis of 4-nitrophenylacetate)
# Type: biochemical
# condition: 4-NPA hydrolysis; three independent assays, relative errors 5–10%
readout_kind: IC50 (nM)
# unit: nM | format: bare number

Recorded results for 3 compounds are shown here.
• COc1cc(-c2cn(-c3ccc(S(N)(=O)=O)cc3)nn2)ccc1NC(=O)CCCC(=O)N[C@@H]1O[C@H](CO)[C@@H](O)[C@H](O)[C@H]1O [Compound 16m] = 146
• Cc1cc(-c2cn(-c3ccc(S(N)(=O)=O)cc3)nn2)ccc1NC(=O)CCC(=O)N[C@@H]1O[C@H](CO)[C@@H](O)[C@H](O)[C@H]1O [Compound 16e] = 162
• NS(=O)(=O)c1ccc(-n2cc(-c3cccc(NC(=O)CCC(=O)N[C@@H]4O[C@H](CO)[C@@H](O)[C@H](O)[C@H]4O)c3)nn2)cc1 [Compound 16b] = 256

Param item = NS(=O)(=O)c1ccc(-n2cc(-c3ccc(NC(=O)CCC(=O)N[C@@H]4O[C@H](CO)[C@@H](O)[C@H](O)[C@H]4O)cc3)nn2)cc1 [Compound 16a] ; retrieve measured IC50. 135

---

# IC50 annotations
# tested_on: hCA II (Homo sapiens, UniProt P00918)
# procedure_summary: CA inhibition assay (hydrolysis of 4-nitrophenylacetate)
# Assay type: biochemical
# condition: 4-NPA hydrolysis; three independent assays, relative errors 5–10%
Report the figure in nM without appending any unit label.

What value of measured IC50 is listed for NS(=O)(=O)c1ccc(-n2cc(-c3ccc(NC(=O)CCC(=O)N[C@@H]4O[C@H](CO)[C@@H](O)[C@H](O)[C@H]4O)cc3)nn2)cc1 [Compound 16a] ? 27.7

I have this molecule here, Cc1cc(-c2cn(-c3ccc(S(N)(=O)=O)cc3)nn2)ccc1NC(=O)CCCC(=O)N[C@@H]1O[C@H](CO)[C@@H](O)[C@H](O)[C@H]1O [Compound 16l] , and I need its recorded IC50. 25.6

Quick check: IC50 of Nc1ccc(-c2cn(-c3ccc(S(N)(=O)=O)cc3)nn2)cc1F [Compound 14c] ? 15.7

Request the reported IC50 associated with COc1cc(-c2cn(-c3ccc(S(N)(=O)=O)cc3)nn2)ccc1N [Compound 14f] 100

// returns reported IC50 for input Nc1ccc(-c2cn(-c3ccc(S(N)(=O)=O)cc3)nn2)cc1Cl [Compound 14d] 39.9

Query (molecule): NS(=O)(=O)c1ccc(-n2cc(-c3ccc(NC(=O)CCCC(=O)N[C@@H]4O[C@H](CO)[C@@H](O)[C@H](O)[C@H]4O)c(Cl)c3)nn2)cc1 [Compound 16k] ; field requested: IC50 91

Quick one: IC50 of NS(=O)(=O)c1ccc(-n2cc(-c3ccc(NC(=O)CCCC(=O)N[C@@H]4O[C@H](CO)[C@@H](O)[C@H](O)[C@H]4O)cc3)nn2)cc1 [Compound 16h] ? 26

Data origin: paper PMC8704611
